- Test system: NCI-H460
- test_details: NCI tumour cell line growth inhibition, 48 h
Calls of active or inactive are those of the source. Rule as the data show it: active = GI50 up to about 1.1 µM and inactive = higher.
Would you kindly list GI50 for each of these compounds?

Worked examples follow.
O=C1C=Cc2c(Br)sc(Br)c21 | 32.3 µM (inactive)
Cc1cc(S(=O)(=O)Nc2n[nH]c(Nc3ccccc3)n2)c(S)cc1Cl | > 10 µM (inactive)
COc1ccc(COCC[C@H](C)OC2OC(CO[Si](C)(C)C(C)(C)C)C(OC(=O)CCCN=[N+]=[N-])C(OC(=O)CCCN=[N+]=[N-])C2OC(=O)CCCN=[N+]=[N-])cc1 (stereo partly specified) | 55.5 µM (inactive)
c1ccc(CN2CCCCC(Sc3ccccc3)CC2)cc1 (stereo unspecified) | 20.2 µM (inactive)
COc1cccc(CSCC(=O)O)c1 | > 100 µM (inactive)

State recorded GI50 for all listed compounds.
1. C=CCN(c1cc(OCc2ccccc2)c2c(c1)c(C)cn2S(=O)(=O)c1ccccc1)S(C)(=O)=O
2. O=C(O)C(CO)NC(=O)n1c2ccccc2c2ccccc21 (stereo unspecified)
3. CCOCCOCCOCc1nc(C#N)c(N)o1
4. O=C(O)C1=CNC(C(=O)O)=NN1
5. N#CC1(C#N)C(C#N)(C#N)C1(C#N)C(N)=O
6. CC(=O)n1cc(C2CC23N=C(c2ccccc2)OC3=O)c2ccccc21 (stereo unspecified)

1. > 100 µM (inactive)
2. > 100 µM (inactive)
3. > 100 µM (inactive)
4. > 100 µM (inactive)
5. > 100 µM (inactive)
6. 22.4 µM (inactive)

###

- System: OVCAR-8
- test_details: NCI tumour cell line growth inhibition, 48 h
Calls of active or inactive are those of the source. No stated cut-off is given here; in the data, active = GI50 up to about 1.1 µM and inactive = higher.
Classes to choose from: TRUE for active, FALSE for inactive

CN(C)CCNC(=O)c1ccc(Cl)c2c(Nc3ccc(S(N)(=O)=O)cc3)c3ccccc3nc12 | TRUE
COc1ccc(-c2c3c(nc4nc(SCCc5ccccc5)nc(N)c24)CCCC3)cc1OC | FALSE
COc1ccc2c(-c3ccc(OCCN(C)C)cc3)c(Oc3ccc(Cl)cc3)c(=O)oc2c1 | FALSE
N=c1c2ccccc2nc2oc3ccc(Cl)cc3n12 | FALSE

Could you please tell me the result logged for COc1ccc(N2C(=O)CC(c3c[nH]c4ncccc34)C2=O)cc1 (stereo not given) in this assay?
FALSE

###

- Tested on: 786-0
- test_details: NCI tumour cell line growth inhibition, 48 h
Active and inactive are the calls of the source. Cut-off read from the data, not from the text of the source: active = GI50 up to about 1.1 µM and inactive = higher.
measurement_name: GI50

Cc1cccc2c1C(=O)[C@](C)([C@]1(C)Nc3cccc(C)c3C1=O)N2 | 39.4 µM (inactive)
O=C1c2ccccc2-n2c1nc1ccccc1c2=O [TRYPTANTHRIN] | 28.2 µM (inactive)
c1ccc2cc(C3NCCc4nc[nH]c43)ccc2c1 (stereo unspecified) | 41.3 µM (inactive)
Cc1cccc(NS(=O)(=O)c2ccc3c(c2)OCCOCCOCCOCCO3)c1 | > 100 µM (inactive)
O=c1ssc2ncccc12 | 16.9 µM (inactive)
CC(=O)OCC1OC(n2c(C)c(C(C)=O)c(-c3cccc4ccccc34)c(C#N)c2=S)C(OC(C)=O)C(OC(C)=O)C1OC(C)=O (stereo unspecified) | > 100 µM (inactive)

State recorded GI50 for all listed molecules.
1. COc1ccc(/C(C)=N/NC(=O)c2ccncc2)c(OC)c1
2. COC(Cc1ccccc1)NC(C)=O (stereo unspecified)
3. C/C(Nc1ccc(Cl)cc1Cl)=C1/CCOC1=O
4. c1cncc(C2c3[nH]c4ccccc4c3CCN2CCN2CCCCC2)c1 (stereo unspecified)

1: > 10 µM (inactive); 2: > 100 µM (inactive); 3: 40.4 µM (inactive); 4: > 100 µM (inactive)

If you can, please state the reported GI50 value of CCOc1ccc(/C=C2/C(=O)N=C(N)N=C2N)cc1OCC .
> 100 µM (inactive)

Reference for the values: ChEMBL document CHEMBL1201862
